Recorded inhibition at 10 µM values for a group of molecules are listed next.
Target: hFASN enzyme (full length) (Homo sapiens, UniProt P49327)
Construct: 10 μL hFASN enzyme (full length, 300 ng, purified in house); made in house
Sequence (P49327 whole entry): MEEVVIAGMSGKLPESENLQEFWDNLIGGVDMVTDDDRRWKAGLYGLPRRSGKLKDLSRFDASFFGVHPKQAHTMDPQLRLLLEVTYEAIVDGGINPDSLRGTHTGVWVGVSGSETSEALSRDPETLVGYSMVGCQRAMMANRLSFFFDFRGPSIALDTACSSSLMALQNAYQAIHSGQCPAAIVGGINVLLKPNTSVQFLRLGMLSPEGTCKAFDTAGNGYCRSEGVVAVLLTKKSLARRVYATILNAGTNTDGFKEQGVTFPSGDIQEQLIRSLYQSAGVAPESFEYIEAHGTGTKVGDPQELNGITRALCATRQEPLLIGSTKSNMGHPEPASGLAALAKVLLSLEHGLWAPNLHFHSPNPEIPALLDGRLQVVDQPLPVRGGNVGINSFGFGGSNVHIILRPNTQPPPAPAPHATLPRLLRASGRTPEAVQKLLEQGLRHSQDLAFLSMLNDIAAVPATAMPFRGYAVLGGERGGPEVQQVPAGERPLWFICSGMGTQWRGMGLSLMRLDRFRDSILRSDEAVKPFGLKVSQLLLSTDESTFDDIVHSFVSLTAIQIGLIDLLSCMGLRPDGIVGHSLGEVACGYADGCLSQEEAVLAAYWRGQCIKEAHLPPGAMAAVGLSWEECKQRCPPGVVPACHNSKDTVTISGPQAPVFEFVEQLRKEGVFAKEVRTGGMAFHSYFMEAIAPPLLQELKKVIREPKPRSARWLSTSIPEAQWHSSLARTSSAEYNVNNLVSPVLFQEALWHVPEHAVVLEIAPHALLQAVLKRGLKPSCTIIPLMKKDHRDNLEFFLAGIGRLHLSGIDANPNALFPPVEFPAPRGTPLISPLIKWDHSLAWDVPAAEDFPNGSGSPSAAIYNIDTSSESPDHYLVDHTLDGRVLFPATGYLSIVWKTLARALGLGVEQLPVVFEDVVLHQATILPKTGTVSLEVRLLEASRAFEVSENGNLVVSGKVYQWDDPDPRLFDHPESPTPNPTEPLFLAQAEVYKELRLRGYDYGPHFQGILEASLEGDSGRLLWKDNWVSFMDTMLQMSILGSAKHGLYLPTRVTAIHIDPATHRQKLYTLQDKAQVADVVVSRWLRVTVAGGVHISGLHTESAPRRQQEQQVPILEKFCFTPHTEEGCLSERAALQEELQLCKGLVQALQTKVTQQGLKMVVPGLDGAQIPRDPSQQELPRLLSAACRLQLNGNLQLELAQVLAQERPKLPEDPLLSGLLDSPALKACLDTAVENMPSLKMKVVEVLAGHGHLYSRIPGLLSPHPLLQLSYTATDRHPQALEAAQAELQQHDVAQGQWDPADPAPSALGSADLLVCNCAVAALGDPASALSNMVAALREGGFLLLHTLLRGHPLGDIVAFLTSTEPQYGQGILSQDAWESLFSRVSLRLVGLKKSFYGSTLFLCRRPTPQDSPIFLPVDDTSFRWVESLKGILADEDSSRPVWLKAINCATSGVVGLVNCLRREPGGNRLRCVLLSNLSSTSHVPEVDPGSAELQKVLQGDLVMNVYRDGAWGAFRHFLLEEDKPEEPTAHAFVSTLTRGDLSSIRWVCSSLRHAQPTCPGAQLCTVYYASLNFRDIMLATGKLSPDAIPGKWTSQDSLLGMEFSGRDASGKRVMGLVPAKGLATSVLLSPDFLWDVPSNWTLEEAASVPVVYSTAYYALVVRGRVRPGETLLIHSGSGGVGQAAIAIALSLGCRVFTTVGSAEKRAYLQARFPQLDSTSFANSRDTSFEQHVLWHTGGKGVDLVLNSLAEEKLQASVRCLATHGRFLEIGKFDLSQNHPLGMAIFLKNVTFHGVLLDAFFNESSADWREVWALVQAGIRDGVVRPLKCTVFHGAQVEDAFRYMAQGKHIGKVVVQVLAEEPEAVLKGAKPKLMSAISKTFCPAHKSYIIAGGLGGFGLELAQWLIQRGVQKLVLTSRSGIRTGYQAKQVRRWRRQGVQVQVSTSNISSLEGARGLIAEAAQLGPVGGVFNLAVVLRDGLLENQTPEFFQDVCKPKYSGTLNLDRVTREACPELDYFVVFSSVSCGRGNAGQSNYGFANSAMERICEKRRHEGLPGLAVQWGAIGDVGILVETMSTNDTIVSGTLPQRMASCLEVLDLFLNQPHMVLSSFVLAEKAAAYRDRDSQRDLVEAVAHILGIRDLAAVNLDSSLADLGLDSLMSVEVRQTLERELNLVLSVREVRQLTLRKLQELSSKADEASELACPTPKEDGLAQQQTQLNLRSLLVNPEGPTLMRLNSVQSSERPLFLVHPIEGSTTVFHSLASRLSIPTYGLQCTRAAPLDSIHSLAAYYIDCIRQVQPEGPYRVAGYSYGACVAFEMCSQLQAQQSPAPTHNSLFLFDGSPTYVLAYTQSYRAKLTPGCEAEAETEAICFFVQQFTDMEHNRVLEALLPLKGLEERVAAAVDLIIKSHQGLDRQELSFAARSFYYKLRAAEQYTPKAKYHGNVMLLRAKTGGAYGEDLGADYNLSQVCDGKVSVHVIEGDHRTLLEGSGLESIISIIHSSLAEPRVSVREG
Experiment: Fatty Acid Synthase (FASN) inhibition scintillation proximity assay
Type: biochemical
Details: read-out: Human FASN % inhibition @ 10 μM, 10 μM test compound
test.readout: inhibition at 10 µM (%)

>  <molecule>
COC(=O)N1CC2(C1)N=C(c1ccc(-c3ccc4cccnc4c3)cc1)N(C[C@@H]1CCN(C(=O)C3CC3)C1)C2=O

>  <measured.number>
100

$$$$
>  <molecule>
O=C(C1CC1)N1CC[C@@H](CN2C(=O)C3(CCN(C(=O)C(F)(F)F)CC3)N=C2c2ccc(-c3ccc4[nH]ccc4c3)cc2)C1

>  <measured.number>
98

$$$$
>  <molecule>
COc1cccc2ccc(-c3ccc(C4=NC5(CC5)C(=O)N4CC4CN(C(=O)C5(O)CC5)C4)c(F)c3)cc12

>  <measured.number>
103

$$$$
>  <molecule>
O=C(N1CCCC1)N1CC(CN2C(=O)C3(CCOC3)N=C2c2ccc(-c3ccc4cccnc4c3)cc2)C1 (stereo not drawn)

>  <measured.number>
87

$$$$
>  <molecule>
COCCN1CCC2(CC1)N=C(c1ccc(-c3ccc4[nH]ncc4c3)cc1)N(CC1CN(C(=O)C3CC3)C1)C2=O

>  <measured.number>
82

$$$$
>  <molecule>
O=C(C1CC1)N1CC[C@@H](CN2C(=O)C3(CCN(Cc4ccccc4)CC3)N=C2c2ccc(-c3ccc4[nH]ccc4c3)cc2)C1

>  <measured.number>
115

$$$$
>  <molecule>
Cn1ncc2cc(-c3ccc(C4=NC5(CCOCC5)C(=O)N4CC4CN(C(=O)[C@H]5CCCO5)C4)cc3)ccc21

>  <measured.number>
76

$$$$
>  <molecule>
Cn1cc(-c2ccc(-c3ccc(C4=NC5(CC5)C(=O)N4CC4CN(C(=O)C5CC5)C4)cc3)cc2)cn1

>  <measured.number>
98.7

$$$$
>  <molecule>
O=C(C1CC1)N1CC[C@@H](CN2C(=O)C3(CCCC3)N=C2c2ccc(-c3ccc4cccnc4c3)cc2F)C1

>  <measured.number>
104

$$$$
>  <molecule>
O=C(C1CC1)N1CC(CN2C(=O)C3(CC3)N=C2c2ccc(-c3nc4ccc(Cl)cc4o3)cc2F)C1

>  <measured.number>
97

$$$$
>  <molecule>
CC(C)n1ccc2cc(-c3ccc(C4=NC5(CC5)C(=O)N4CC4CN(C(=O)C5CC5)C4)cc3)ccc21

>  <measured.number>
74

$$$$
>  <molecule>
Cn1ncc2cc(-c3ccc(C4=NC5(CCOC5)C(=O)N4CC4CN(C(=O)C5CC5)C4)cc3)ccc21 (stereo not drawn)

>  <measured.number>
56

$$$$
>  <molecule>
Cn1ncc2cc(-c3ccc(C4=NC5(CCOC5)C(=O)N4C[C@@H]4CCN(S(C)(=O)=O)C4)cc3)ccc21 (stereo partly drawn)

>  <measured.number>
5

$$$$
>  <molecule>
Cn1ncc2cc(-c3ccc(C4=NC5(CC5)C(=O)N4C[C@@H]4CCN(C(=O)C5(C)CC5)C4)c(F)c3)ccc21

>  <measured.number>
103

$$$$
>  <molecule>
O=C1CCc2cc(-c3ccc(C4=NC5(CC5)C(=O)N4C[C@@H]4CCN(C(=O)C5CC5)C4)cc3)ccc2N1

>  <measured.number>
87

$$$$
>  <molecule>
N#Cc1ccc2ccc(-c3ccc(C4=NC5(CC5)C(=O)N4CC4CN(C(=O)C5(O)CC5)C4)c(F)c3)cc2c1

>  <measured.number>
92

$$$$
>  <molecule>
Cc1cc(-c2cccc3[nH]ncc23)ccc1C1=NC2(CC2)C(=O)N1CC1CN(C(=O)C2CC2)C1

>  <measured.number>
99

$$$$
>  <molecule>
O=C(C1CC1)N1CC[C@@H](CN2C(=O)C3(CCCC3)N=C2c2ccc(-c3ccc4cc[nH]c4c3)cc2)C1

>  <measured.number>
109

$$$$
>  <molecule>
O=C(C1CC1)N1CCC(CN2C(=O)C3(CCCC3)N=C2c2ccc(-c3ccc4[nH]ccc4c3)cc2)CC1

>  <measured.number>
99.2

$$$$
>  <molecule>
O=C(C1CC1)N1CC[C@@H](CN2C(=O)C3(CC3)N=C2c2ccc(-c3ccc4cc[nH]c4c3)cc2)C1

>  <measured.number>
99

$$$$
>  <molecule>
COCc1nn(C)c2ccc(-c3ccc(C4=NC5(CC5)C(=O)N4CC4CN(C(=O)C5CC5)C4)c(F)c3)cc12

>  <measured.number>
98

$$$$
>  <molecule>
Cn1ncc2cc(-c3ccc(C4=NC5(CCOC5)C(=O)N4C[C@@H]4CCN(C(=O)N5CCCC5)C4)cc3)ccc21 (stereo partly drawn)

>  <measured.number>
48

$$$$
>  <molecule>
O=C(C1CC1)N1CCC(CN2C(=O)C3(CC3)N=C2c2ccc(-c3ccncc3)cc2)CC1

>  <measured.number>
6.8

$$$$
>  <molecule>
CC(C)n1ncc2cc(-c3ccc(C4=NC5(CC5)C(=O)N4CC4CN(C(=O)C5CC5)C4)cc3)ccc21

>  <measured.number>
7

$$$$
>  <molecule>
O=C(C1CC1)N1CC[C@@H](CN2C(=O)C3(CC3)N=C2c2ccc(-c3ccc4[nH]ncc4c3)s2)C1

>  <measured.number>
68

$$$$
>  <molecule>
Cc1cc(-c2cc(Cl)c3cn[nH]c3c2)ccc1C1=NC2(CC2)C(=O)N1CC1CN(C(=O)C2CC2)C1

>  <measured.number>
55

$$$$
>  <molecule>
Cc1cc(-c2ccc(C3(C#N)CC3)cc2F)ccc1C1=NC2(CC2)C(=O)N1CC1CN(C(=O)C2(C)CC2)C1

>  <measured.number>
56

$$$$
